Reference for the values: the supplement of paper PMC9112550

- Test system: Escherichia coli TOP10
- PROTOCOL_DETAILS: shrunken log2 fold change of peptide-encoding DNA abundance (4.5 h post-induction vs induction); higher = less antimicrobial activity (less host growth inhibition)
- MEASUREMENT_CONDITIONS: time post-induction: 4.5 h; library: site-saturation at positions 5, 18, 19, 20
READOUT_NAME: shrunken log2 fold change
// print number alone

Provide only the value of recorded shrunken log2 fold change for RRIRARPPRLPRPRPRPNVGPRP
0.251

Provide only the value of recorded shrunken log2 fold change for RRIRKRPPRLPRPRPRPAHWPRP
0.719

Provide only the value of recorded shrunken log2 fold change for RRIRNRPPRLPRPRPRPGYHPRP
-0.37

Provide only the value of recorded shrunken log2 fold change for RRIRIRPPRLPRPRPRPMLQPRP
-0.452

Provide only the value of recorded shrunken log2 fold change for RRIRWRPPRLPRPRPRPGRMPRP
0.000663

Further cases:
Provide only the value of recorded shrunken log2 fold change for RRIRYRPPRLPRPRPRPTLRPRP
-0.484

Provide only the value of recorded shrunken log2 fold change for RRIRMRPPRLPRPRPRPHPQPRP
0.427

###

- Test system: Escherichia coli TOP10
- PROTOCOL_DETAILS: shrunken log2 fold change of peptide-encoding DNA abundance (4.5 h post-induction vs induction); higher = less antimicrobial activity (less host growth inhibition)
- MEASUREMENT_CONDITIONS: time post-induction: 4.5 h; library: site-saturation at positions 5, 18, 19, 20
Please map values of shrunken log2 fold change to classes as shown: low class: < -0.07; middle class: ≥ -0.07 and < 0.06; high class: ≥ 0.06

# example entries with known answers
Which bin, given its shrunken log2 fold change, does RRIRGRPPRLPRPRPRPYQKPRP occupy?
middle class

Which bin, given its shrunken log2 fold change, does RRIRQRPPRLPRPRPRPFEWPRP occupy?
middle class

Which bin, given its shrunken log2 fold change, does RRIRARPPRLPRPRPRPTCLPRP occupy?
middle class

Which bin, given its shrunken log2 fold change, does RRIRKRPPRLPRPRPRPSLMPRP occupy?
high class

Further cases:
Which bin, given its shrunken log2 fold change, does RRIRVRPPRLPRPRPRPEMMPRP occupy?
high class

Which bin, given its shrunken log2 fold change, does RRIRCRPPRLPRPRPRPFTGPRP occupy?
middle class

Which bin, given its shrunken log2 fold change, does RRIRGRPPRLPRPRPRPMRCPRP occupy?
high class

Which bin, given its shrunken log2 fold change, does RRIRYRPPRLPRPRPRPKCHPRP occupy?
low class

Which bin, given its shrunken log2 fold change, does RRIRCRPPRLPRPRPRPNPVPRP occupy?
low class

Which bin, given its shrunken log2 fold change, does RRIRRRPPRLPRPRPRPSCAPRP occupy?
high class

###

- System: Escherichia coli TOP10
- PROTOCOL_DETAILS: shrunken log2 fold change of peptide-encoding DNA abundance (4.5 h post-induction vs induction); higher = less antimicrobial activity (less host growth inhibition)
- MEASUREMENT_CONDITIONS: time post-induction: 4.5 h; library: site-saturation at positions 5, 18, 19, 20
Listing: shrunken log2 fold change of selected sequences
// print number alone

See these solved cases before continuing.
Provide only the value of recorded shrunken log2 fold change for RRIRCRPPRLPRPRPRPGPYPRP
-0.385

Provide only the value of recorded shrunken log2 fold change for RRIRFRPPRLPRPRPRPWLAPRP
2.73

Provide only the value of recorded shrunken log2 fold change for RRIRRRPPRLPRPRPRPILPPRP
0.177

Provide only the value of recorded shrunken log2 fold change for RRIRFRPPRLPRPRPRPNEFPRP
-0.0262

Further cases:
Provide only the value of recorded shrunken log2 fold change for RRIRQRPPRLPRPRPRPGGTPRP
0.11

Provide only the value of recorded shrunken log2 fold change for RRIRNRPPRLPRPRPRPQPIPRP
0.14

Provide only the value of recorded shrunken log2 fold change for RRIRHRPPRLPRPRPRPGRQPRP
-0.0906

###

Listing: shrunken log2 fold change of selected sequences
- Test system: Escherichia coli TOP10
- PROTOCOL_DETAILS: shrunken log2 fold change of peptide-encoding DNA abundance (4.5 h post-induction vs induction); higher = less antimicrobial activity (less host growth inhibition)
- MEASUREMENT_CONDITIONS: time post-induction: 4.5 h; library: site-saturation at positions 5, 18, 19, 20
// print number alone

See these solved cases before continuing.
Provide only the value of recorded shrunken log2 fold change for RRIRYRPPRLPRPRPRPFIDPRP
-0.018

Provide only the value of recorded shrunken log2 fold change for RRIRARPPRLPRPRPRPLAQPRP
0.578

Provide only the value of recorded shrunken log2 fold change for RRIRFRPPRLPRPRPRPNCAPRP
0.154

Provide only the value of recorded shrunken log2 fold change for RRIRKRPPRLPRPRPRPEVMPRP
0.148

Provide only the value of recorded shrunken log2 fold change for RRIRARPPRLPRPRPRPGCCPRP
0.841

Provide only the value of recorded shrunken log2 fold change for RRIRERPPRLPRPRPRPYTSPRP
-0.141

Further cases:
Provide only the value of recorded shrunken log2 fold change for RRIRTRPPRLPRPRPRPCHVPRP
-0.114

Provide only the value of recorded shrunken log2 fold change for RRIRKRPPRLPRPRPRPTWGPRP
0.317

###

- Test system: Escherichia coli TOP10
- PROTOCOL_DETAILS: shrunken log2 fold change of peptide-encoding DNA abundance (4.5 h post-induction vs induction); higher = less antimicrobial activity (less host growth inhibition)
- MEASUREMENT_CONDITIONS: time post-induction: 4.5 h; library: site-saturation at positions 5, 18, 19, 20
Label True when shrunken log2 fold change >= 0.01; otherwise False.

# example entries with known answers
Check this sequence for shrunken log2 fold change at or above 0.01: RRIRWRPPRLPRPRPRPHDNPRP
False

Check this sequence for shrunken log2 fold change at or above 0.01: RRIRTRPPRLPRPRPRPCGGPRP
True

Check this sequence for shrunken log2 fold change at or above 0.01: RRIRPRPPRLPRPRPRPWPRPRP
True

Check this sequence for shrunken log2 fold change at or above 0.01: RRIRERPPRLPRPRPRPNHFPRP
False

Check this sequence for shrunken log2 fold change at or above 0.01: RRIRSRPPRLPRPRPRPDQPPRP
True

Check this sequence for shrunken log2 fold change at or above 0.01: RRIRWRPPRLPRPRPRPGEPPRP
True

Further cases:
Check this sequence for shrunken log2 fold change at or above 0.01: RRIRPRPPRLPRPRPRPLPTPRP
True

Check this sequence for shrunken log2 fold change at or above 0.01: RRIRKRPPRLPRPRPRPHWFPRP
True

Check this sequence for shrunken log2 fold change at or above 0.01: RRIRMRPPRLPRPRPRPFKNPRP
True

Check this sequence for shrunken log2 fold change at or above 0.01: RRIRMRPPRLPRPRPRPVYWPRP
True

Check this sequence for shrunken log2 fold change at or above 0.01: RRIRKRPPRLPRPRPRPVISPRP
False

Check this sequence for shrunken log2 fold change at or above 0.01: RRIRKRPPRLPRPRPRPVMFPRP
True

Check this sequence for shrunken log2 fold change at or above 0.01: RRIRFRPPRLPRPRPRPENHPRP
False

Check this sequence for shrunken log2 fold change at or above 0.01: RRIRGRPPRLPRPRPRPHNVPRP
True

###

Listing: shrunken log2 fold change of selected sequences
- System: Escherichia coli TOP10
- PROTOCOL_DETAILS: shrunken log2 fold change of peptide-encoding DNA abundance (4.5 h post-induction vs induction); higher = less antimicrobial activity (less host growth inhibition)
- MEASUREMENT_CONDITIONS: time post-induction: 4.5 h; library: site-saturation at positions 5, 18, 19, 20
// print number alone

See these solved cases before continuing.
Provide only the value of recorded shrunken log2 fold change for RRIRFRPPRLPRPRPRPQHNPRP
-0.781

Provide only the value of recorded shrunken log2 fold change for RRIRQRPPRLPRPRPRPSYRPRP
-0.0524

Provide only the value of recorded shrunken log2 fold change for RRIRERPPRLPRPRPRPMYEPRP
-0.00246

// below: shrunken log2 fold change requested for another sequence
Provide only the value of recorded shrunken log2 fold change for RRIRWRPPRLPRPRPRPEEWPRP
-0.0123

###

- System: Escherichia coli TOP10;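 note: peptides expressed intracellularly from a pBAD plasmid library in pooled LB shake-flask culture, induced with 0.3% L-arabinose, DNA abundance read by NGS, three biological replicates, DESeq2 with apeglm shrinkage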
- PROTOCOL_DETAILS: shrunken log2 fold change of peptide-encoding DNA abundance (4.5 h post-induction vs induction); higher = less antimicrobial activity (less host growth inhibition)
- MEASUREMENT_CONDITIONS: time post-induction: 4.5 h; library: site-saturation at positions 5, 18, 19, 20
Label Criterion met when shrunken log2 fold change >= 0.1; otherwise Criterion not met.

# example entries with known answers
Check this sequence for shrunken log2 fold change at or above 0.1: RRIRPRPPRLPRPRPRPAYDPRP
Criterion not met

Check this sequence for shrunken log2 fold change at or above 0.1: RRIRWRPPRLPRPRPRPSTIPRP
Criterion not met

Check this sequence for shrunken log2 fold change at or above 0.1: RRIRVRPPRLPRPRPRPCMTPRP
Criterion not met

Check this sequence for shrunken log2 fold change at or above 0.1: RRIRLRPPRLPRPRPRPFGVPRP
Criterion not met

Check this sequence for shrunken log2 fold change at or above 0.1: RRIRNRPPRLPRPRPRPIQYPRP
Criterion not met

Check this sequence for shrunken log2 fold change at or above 0.1: RRIRKRPPRLPRPRPRPEYGPRP
Criterion not met

Check this sequence for shrunken log2 fold change at or above 0.1: RRIRDRPPRLPRPRPRPNIMPRP
Criterion not met

Check this sequence for shrunken log2 fold change at or above 0.1: RRIRMRPPRLPRPRPRPAELPRP
Criterion met

Further cases:
Check this sequence for shrunken log2 fold change at or above 0.1: RRIRNRPPRLPRPRPRPYSMPRP
Criterion not met

Check this sequence for shrunken log2 fold change at or above 0.1: RRIRTRPPRLPRPRPRPPILPRP
Criterion met

Check this sequence for shrunken log2 fold change at or above 0.1: RRIRIRPPRLPRPRPRPSHDPRP
Criterion not met

Check this sequence for shrunken log2 fold change at or above 0.1: RRIRERPPRLPRPRPRPWPYPRP
Criterion not met

Check this sequence for shrunken log2 fold change at or above 0.1: RRIRSRPPRLPRPRPRPDTVPRP
Criterion not met

Check this sequence for shrunken log2 fold change at or above 0.1: RRIRRRPPRLPRPRPRPQSSPRP
Criterion not met

Check this sequence for shrunken log2 fold change at or above 0.1: RRIRYRPPRLPRPRPRPVHPPRP
Criterion not met

Check this sequence for shrunken log2 fold change at or above 0.1: RRIRPRPPRLPRPRPRPIRNPRP
Criterion not met

Check this sequence for shrunken log2 fold change at or above 0.1: RRIRMRPPRLPRPRPRPWNKPRP
Criterion not met

Check this sequence for shrunken log2 fold change at or above 0.1: RRIRDRPPRLPRPRPRPSSDPRP
Criterion met
